Give protein stability index for every item shown.
B1: WDR88 (parent)
chain: LLTITKAHSNAISNCCFTFSGHFL

# Variants of: B1
# TEST_METHOD_NOTES: protein stability index of a GFP-peptide fusion (GPS, HEK-293T) (PSI 1-6); higher = more stable;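 note: lentivirally expressed fusions sorted by FACS into six bins by GFP to DsRed ratio, PSI derived from sequencing read proportions per bin multiplied by bin number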
# MEASUREMENT_PARAMETERS: c terminus: a fixed tail appended
Numbers only.

INSERT INTO assay_data (primary_sequence, property_measured, data_value) VALUES
  ('LLTITKAHSNAISNCCFTFSGHYL [F23Y]', 'protein stability index', 2.94),
  ('LLTILKAHSNAISNCCFTFSGHFL [T5L]', 'protein stability index', 2.03),
  ('LLTIVKAHSNAISNCCFTFSGHFL [T5V]', 'protein stability index', 3.03);

Record protein stability index for all entries; do not skip any.
1. LLTITKAHSNAISNSCFTFSGHFL [C15S]
2. LLTITKAHSNAIKNCCFTFSGHFL [S13K]

[2.97, 2.03]
